Recorded values, source ChEMBL document CHEMBL1159230.

Listing of entries alongside the reported EC50.
# Test system: Human immunodeficiency virus 1
# ASSAY TEXT: Antiviral activity against HIV1 3B infected in human H9 cells after 4 days by p24 antigen ELISA assay
# Format: functional, organism-based
# CONDITION CONTEXT: Human immunodeficiency virus 1, 3B, H9, 96 h
VALUE TYPE: EC50 (mg/L)

compound="O=C(O[C@H](Cc1ccc(O)c(O)c1)C(=O)[O-])C1=Cc2cc(O)c(O)cc2[C@@H](c2ccc(O)c(O)c2)C1C(=O)O[C@H](Cc1ccc(O)c(O)c1)C(=O)[O-].[K+].[K+] (stereo partly drawn)" value_type=EC50 numeric_result=16
compound=O=C(O[C@H](Cc1ccc(O)c(O)c1)C(=O)[O-])C1=Cc2cc(O)c(O)cc2[C@H](c2ccc(O)c(O)c2)[C@H]1C(=O)O[C@H](Cc1ccc(O)c(O)c1)C(=O)O.[K+] value_type=EC50 numeric_result=1.5
compound="O=C(O[C@H](Cc1ccc(O)c(O)c1)C(=O)[O-])C1=Cc2cc(O)c(O[C@@H]3O[C@H](CO)[C@@H](O)[C@H](O)[C@H]3O)cc2[C@@H](c2ccc(O)c(O)c2)C1C(=O)O[C@H](Cc1ccc(O)c(O)c1)C(=O)[O-].[K+].[Na+] (stereo partly drawn)" value_type=EC50 numeric_result=30
compound="O=c1ccn([C@@H]2O[C@H](CO)[C@@H](O)[C@H]2O)c(=O)[nH]1 [URIDINE]" value_type=EC50 numeric_result=10
compound="O=C(O[C@H](Cc1ccc(O)c(O)c1)C(=O)O)C1=Cc2cc(O)c(O)cc2[C@@H](c2ccc(O)c(O)c2)C1C(=O)O[C@H](Cc1ccc(O)c(O)c1)C(=O)O (stereo partly drawn)" value_type=EC50 numeric_result=15
compound="O=C(O[C@H](Cc1ccc(O)c(O)c1)C(=O)[O-])C1=Cc2cc(O)c(O)cc2[C@@H](c2ccc(O)c(O)c2)C1C(=O)O[C@H](Cc1ccc(O)c(O)c1)C(=O)O.[K+] (stereo partly drawn)" value_type=EC50 numeric_result=4
compound="O=C(O[C@H](Cc1ccc(O)c(O)c1)C(=O)[O-])C1=Cc2cc(O)c(O)cc2[C@@H](c2ccc(O)c(O)c2)C1C(=O)O[C@H](Cc1ccc(O)c(O)c1)C(=O)[O-].[Na+].[Na+] (stereo partly drawn)" value_type=EC50 numeric_result=2.8
compound=O=C(O[C@H](Cc1ccc(O)c(O)c1)C(=O)O)C1=Cc2cc(O)c(O)cc2[C@H](c2ccc(O)c(O)c2)[C@H]1C(=O)O[C@H](Cc1ccc(O)c(O)c1)C(=O)O value_type=EC50 numeric_result=13
